Test system: Vero cells
experiment-description: Cytotoxicity assay on Vero cells (MTT)
Format: cell-based, African green monkey
measurement-parameters: Chlorocebus sabaeus, Vero; 48 h, MTT
measure: pIC50
Entry type: numeric. Quantity: pIC50, the -log10 of concentration in molar units.

[ask] # pIC50 lookup, item CCCCCCCC/C=C\CCCCCCCCn1cc(CN2CCC[C@H]2C(=O)OC)nn1 [Compound 3k]
[reply] 4.77

[ask] Record request: pIC50 value, item COC(=O)[C@@H]1CCCN1Cc1cn(C/C=C(\C)CC/C=C(\C)CCC=C(C)C)nn1 [Compound 3n]
[reply] 4.85

[ask] Requested read-out: pIC50. Entry: CCCCCCCCCCn1cc(CN2CCC[C@H]2C(=O)OC)nn1 [Compound 3i]
[reply] 4.37
